# TEST_CONDITIONS: in n-butanol, 303.15 K
READOUT: solubility (mole fraction)

Problem: Would you kindly share the measured solubility (mole fraction) for O=C1C(CCS(=O)c2ccccc2)C(=O)N(c2ccccc2)N1c1ccccc1 (stereo unspecified) ?
Solution: 0.00592

----------
# TEST_CONDITIONS: in water, 283.15 K
READOUT: solubility (mole fraction)
Simply state the number, no unit and no words.

Problem: Would you kindly share the measured solubility (mole fraction) for O=C1C(CCS(=O)c2ccccc2)C(=O)N(c2ccccc2)N1c1ccccc1 (stereo unspecified) ?
Solution: 3.6e-05

----------
# TEST_CONDITIONS: in acetonitrile, 298.15 K
READOUT: solubility (mole fraction)
Simply state the number, no unit and no words.

Problem: Would you kindly share the measured solubility (mole fraction) for O=C1C(CCS(=O)c2ccccc2)C(=O)N(c2ccccc2)N1c1ccccc1 (stereo unspecified) ?
Solution: 0.0265

----------
# TEST_CONDITIONS: in acetonitrile, 308.15 K
READOUT: solubility (mole fraction)
Simply state the number, no unit and no words.

Problem: Would you kindly share the measured solubility (mole fraction) for O=C1C(CCS(=O)c2ccccc2)C(=O)N(c2ccccc2)N1c1ccccc1 (stereo unspecified) ?
Solution: 0.0474

----------
# TEST_CONDITIONS: in water, 313.15 K
READOUT: solubility (mole fraction)
Simply state the number, no unit and no words.

Problem: Would you kindly share the measured solubility (mole fraction) for O=C1C(CCS(=O)c2ccccc2)C(=O)N(c2ccccc2)N1c1ccccc1 (stereo unspecified) ?
Solution: 0.000479

----------
# TEST_CONDITIONS: in n-propanol, 288.15 K
READOUT: solubility (mole fraction)
Simply state the number, no unit and no words.

Problem: Would you kindly share the measured solubility (mole fraction) for O=C1C(CCS(=O)c2ccccc2)C(=O)N(c2ccccc2)N1c1ccccc1 (stereo unspecified) ?
Solution: 0.00266

----------
# TEST_CONDITIONS: in n-propanol, 308.15 K
READOUT: solubility (mole fraction)

Problem: Would you kindly share the measured solubility (mole fraction) for O=C1C(CCS(=O)c2ccccc2)C(=O)N(c2ccccc2)N1c1ccccc1 (stereo unspecified) ?
Solution: 0.00752

----------
# TEST_CONDITIONS: in methyl acetate, 293.15 K
READOUT: solubility (mole fraction)
Simply state the number, no unit and no words.

Problem: Would you kindly share the measured solubility (mole fraction) for O=C1C(CCS(=O)c2ccccc2)C(=O)N(c2ccccc2)N1c1ccccc1 (stereo unspecified) ?
Solution: 0.0139

----------
# TEST_CONDITIONS: in n-pentanol, 308.15 K
READOUT: solubility (mole fraction)
Simply state the number, no unit and no words.

Problem: Would you kindly share the measured solubility (mole fraction) for O=C1C(CCS(=O)c2ccccc2)C(=O)N(c2ccccc2)N1c1ccccc1 (stereo unspecified) ?
Solution: 0.00725

----------
# TEST_CONDITIONS: in methyl acetate, 313.15 K
READOUT: solubility (mole fraction)
Simply state the number, no unit and no words.

Problem: Would you kindly share the measured solubility (mole fraction) for O=C1C(CCS(=O)c2ccccc2)C(=O)N(c2ccccc2)N1c1ccccc1 (stereo unspecified) ?
Solution: 0.0272

----------
# TEST_CONDITIONS: in water, 303.15 K
READOUT: solubility (mole fraction)
Simply state the number, no unit and no words.

Problem: Would you kindly share the measured solubility (mole fraction) for O=C1C(CCS(=O)c2ccccc2)C(=O)N(c2ccccc2)N1c1ccccc1 (stereo unspecified) ?
Solution: 0.000264
